TESTED_TARGET: T1, ZTNF4 (Homo sapiens (Human), UniProt Q9Y275 134-285, limits assumed, radioiodinated with 125I (Iodobeads) in the binding assays; unlabeled ZTNF4 used to determine nonspecific binding)
T1 construct: also called BAFF
ASSAY_EXPLANATION: competitive binding: TACI-Fc against plate-coated TACI-N for 125I-ZTNF4
PROPERTY_LABEL: concentration giving complete inhibition

Kindly note the recorded concentration giving complete inhibition for TACI (d1-29, d120-154)-Fc5 (Fc fusion) AMRSCPEEQYWDPLLGTCMSCKTICNHQSQRTCAAFCRSLSCRKEQGKFYDHLLRDCISCASICGQHPKQCAYFCENKLRSPVNLPPELREPKSSDKTHTCPPCPAPEAEGAPSVFLFPPKPKDTLMISRTPEVTCVVVDVSHEDPEVKFNWYVDGVEVHNAKTKPREEQYNSTYRVVSVLTVLHQDWLNGKEYKCKVSNKALPSSIEKTISKAKGQPREPQVYTLPPSRDELTKNQVSLTCLVKGFYPSDIAVEWESNGQPENNYKTTPPVLDSDGSFFLYSKLTVDKSRWQQGNVFSCSVMHEALHNHYTQKSLSLSPGK , which is ~100 ng/mL
